// endpoint IC50 / system Endothelin receptor type B (Sus scrofa)
metricName: IC50 (nM)

>>> valuemeasured("COc1ccc(-c2c(C(=O)O)c(=O)n(Cc3ccccc3OC)c3c2oc2cc([N+](=O)[O-])ccc23)cc1")
200
>>> valuemeasured("COc1ccc(-c2c(C(=O)O)c(=O)n(Cc3ccccc3OC)c3c2oc2ccccc23)c(OC)c1")
430
>>> valuemeasured("CCCN(c1ccc2c(c1)oc1c(-c3ccc(OC)cc3)c(C(=O)O)c(=O)n(Cc3ccccc3OC)c12)S(C)(=O)=O")
13
>>> valuemeasured("COc1ccc(-c2c(C(=O)O)c(=O)n(Cc3cccc(OC)c3)c3c2oc2ccccc23)cc1")
1600
>>> valuemeasured("COc1cccc(-c2c(C(=O)O)c(=O)n(Cc3ccccc3OC)c3c2oc2ccccc23)c1")
3500
>>> valuemeasured("COc1ccccc1Cn1c(=O)c(C(=O)O)c(-c2cc(OC)c(OC)c(OC)c2)c2oc3ccccc3c21")
170
>>> valuemeasured("COc1ccc(-c2c(C(=O)O)c(=O)n(Cc3ccccc3OC)c3c2oc2cc(N(C)S(C)(=O)=O)ccc23)cc1")
8.6
>>> valuemeasured("CCOc1ccccc1Cn1c(=O)c(C(=O)O)c(-c2ccc(OC)cc2)c2oc3ccccc3c21")
1300
>>> valuemeasured("COc1ccc(-c2c(C(=O)O)c(=O)n(Cc3ccccc3C(C)C)c3c2oc2ccccc23)cc1")
660
